Where do the numbers come from? From patent US20210220356A1.

assay: Cytotoxicity determination in HepG2.2.15 cells (CCK-8); type: cell-based; conditions: human; HepG2.2.15 cells, 5,000 cells/well, 6 days of compound treatment, CCK-8 absorbance 450 nm, highest concentration 100 uM
Where a name gives a salt, the structure may show the parent alone.
Measured CC50 at 6 days, listed per entry.
Expressed in µM, but write only the number.

{"columns": ["compound", "CC50 at 6 days, µM"],
 "data": [
  ["COC(=O)C1=C(C2CCc3nc(C(=O)O)oc3C2)NC(c2nccs2)=NC1c1ccc(F)c(F)c1Cl (centres unmarked) [Compound 78c]", 52]
]}

# evaluate next
Task: Write down CC50 at 6 days measured for item CCOC(=O)C1=C(C2CCc3nn(CC(C)(C)C(=O)O)cc3C2)NC(c2ncc(F)cc2F)=NC1c1ccc(F)c(F)c1Cl (centres unmarked) [Compound 94c, hydrochloride]
Result: 16.5

* * *

Test system: HBV
Test: HBV inhibitory activity in HepG2.2.15 cells (HBV DNA in culture medium by q-PCR)
Type: cell-based
Conditions: HepG2.2.15 cells, 40,000 cells/well, 6 days of compound treatment, HBV DNA in culture medium by q-PCR, highest concentration 10 uM; read-out: EC50
Protocol: • HepG2.2.15 (the HepG2.2.15 cell line can be produced by transfection of the HepG2 cell line as described in Sells, Chen, and Acs 1987 (Proc. Natl. Acad. Sci. USA 84: 1005-1009), and the HepG2 cell line is available from ATCC® under number HB-8065™) […] The HBV DAN change in the cell culture medium induced by the compounds is measured by q-PCR method. […] EC50 and CC50 values are calculated by the GRAPHPAD PRISM software.
attributeMeasured: EC50 (nM)
Express your answer in nM, writing the number without its unit.

{"columns": ["compound", "assayTarget", "attributeMeasured", "quantitativeResult"],
 "data": [
  ["CCOC(=O)C1=C(C2CCc3nn(CCC(=O)O)cc3C2)NC(c2nccs2)=NC1c1ccc(F)cc1Br (single isomer, unassigned) [Compound 39b]", "HBV", "EC50", 165],
  ["COC(=O)C1=C(C2CCc3nn(CCC(=O)O)cc3C2)NC(c2nccs2)=NC1c1ccc(F)c(F)c1Br (single isomer, unassigned) [Compound 46a]", "HBV", "EC50", 219],
  ["CCOC(=O)C1=C(C2CCc3nn(CCC(=O)O)cc3C2)NC(c2nccs2)=NC1c1ccc(F)cc1C (single isomer, unassigned) [Compound 38c]", "HBV", "EC50", 14.6],
  ["COC(=O)C1=C(C2CCc3nn(CCC(=O)O)cc3C2)NC(c2nccs2)=NC1c1ccc(F)cc1Cl (single isomer, unassigned) [Compound 47c]", "HBV", "EC50", 147],
  ["CCOC(=O)C1=C(C2CCc3nn(CCC(=O)O)cc3C2)NC(c2nccs2)=NC1c1ccc(F)cc1Cl (single isomer, unassigned) [Compound 37c]", "HBV", "EC50", 22.2]
]}

Task: Using the record for CCOC(=O)C1=C(C2CCc3nn(C(C)CC(=O)O)cc3C2)NC(c2nccs2)=NC1c1ccc(F)c(F)c1Cl (single isomer, unassigned) [Compound 51b] , state its measured EC50.
Result: 11.7

Task: For COC(=O)C1=C(C2CCc3nn(CCC(=O)O)cc3C2)NC(c2nccs2)=NC1c1ccc(F)cc1Br (single isomer, unassigned) [Compound 48d] , write its EC50.
Result: 30

Task: Please give measured EC50 of the following entry: CCOC(=O)C1=C(C2Cc3cn(CCC(=O)O)nc3C(C)(C)C2)NC(c2nccs2)=NC1c1ccc(F)c(F)c1Cl (centres unmarked) [Compound 55c]
Result: 9.5

Task: Please list EC50 recorded for the compound COC(=O)C1=C(C2CCc3nn(CCC(=O)O)cc3C2)NC(c2nccs2)=NC1c1ccc(F)c(F)c1Cl (single isomer, unassigned) [Compound 70d]
Result: 8.03

Task: For CCOC(=O)C1=C(C2CCc3nn(CCC(=O)O)cc3C2)NC(c2nccs2)=NC1c1cccc(F)c1Br (single isomer, unassigned) [Compound 42d] , write its EC50.
Result: 24.2

Task: Give the measured EC50 for CCOC(=O)C1=C(C2CCc3nn(CCC(=O)O)cc3C2)NC(c2nccs2)=NC1c1ccc(F)c(F)c1Br (single isomer, unassigned) [Compound 36b]
Result: 96.5

Task: Please give the documented EC50 of CCOC(=O)C1=C(C2CCc3nn(CCC(=O)O)cc3C2)NC(c2nccs2)=NC1c1cccc(F)c1Br (single isomer, unassigned) [Compound 42b]
Result: 131

Task: Look up EC50 of COC(=O)C1=C(C2CCc3nn(CCC(=O)O)cc3C2)NC(c2nccs2)=NC1c1cccc(F)c1Br (single isomer, unassigned) [Compound 45b] and report it.
Result: 213

Task: Provide one value: measured EC50 of CCOC(=O)C1=C(C2CCc3nc(CCC(=O)O)oc3C2)NC(c2nccs2)=NC1c1ccc(F)c(F)c1Cl (single isomer, unassigned) [Compound 58d]
Result: 9.2

Task: Consider the compound COC(=O)C1=C(C2CCc3nc([C@H]4C[C@H](C(=O)O)C4)oc3C2)NC(c2nccs2)=NC1c1ccc(F)c(F)c1Cl (single isomer, unassigned) [Compound 72c] . State its measured EC50.
Result: 90.2

Task: Provide measured EC50 value, entry: CCOC(=O)C1=C(C2CCc3nn(CCC(=O)O)cc3C2)NC(c2nccs2)=NC1c1cccc(F)c1C (single isomer, unassigned) [Compound 41c]
Result: 30.4

Task: Give the reported EC50 for this compound. CCOC(=O)C1=C(C2CCc3nn(CCC(=O)O)cc3C2)NC(c2nccs2)=NC1c1cccc(F)c1C (single isomer, unassigned) [Compound 41b]
Result: 292

Task: Quick one: give measured EC50 for CCOC(=O)C1=C(C2CCc3nn(C(C)CC(=O)O)cc3C2)NC(c2nccs2)=NC1c1ccc(F)c(F)c1Cl (single isomer, unassigned) [Compound 52d]
Result: 12.4

Task: Output measured EC50 for this item: CCOC(=O)C1=C(C2CCc3nc(CCC(=O)O)sc3C2)NC(c2nccs2)=NC1c1ccc(F)c(F)c1Cl (single isomer, unassigned) [Compound 60c]
Result: 13.5

Task: # return recorded EC50 for entry COC(=O)C1=C(C2CCc3nc([C@H]4CC[C@H](C(=O)O)CC4)oc3C2)NC(c2nccs2)=NC1c1ccc(F)c(F)c1Cl (single isomer, unassigned) [Compound 86d]
Result: 61.4

Task: Identify the reported EC50 for the following entry. COC(=O)C1=C(C2CCc3nn(CCC(=O)O)cc3C2)NC(c2nccs2)=NC1c1cccc(F)c1Cl (single isomer, unassigned) [Compound 44c]
Result: 32.9
